# assay.procedure: TAR RNA-Tat peptide displacers, HIV-1, primary screen, biochemical, FRET, FAM/TAMRA-labeled Tat (AID 1259389)
# recorded.conditions: HIV-1 TAR RNA, Tat peptide displacement FRET
About 620 (0.62%) of roughly 100,000 compounds were called active. Rule for the calls: active = z-score of 3 or more in at least 2 runs; inactive = the rest. The sample as a whole holds a higher share of actives than the screen did.
// allowed return values: 1 (yes) (active), 0 (no) (inactive)

Record request — test call for O=C(c1ccccc1)c1ccc2nc(NCCCO)c3nncn3c2c1
0 (no)

Next record, please: O=C(CSc1ccc(-c2cccs2)nn1)Nc1ccc(Br)cc1
0 (no)

Also need Nc1cc(=O)nc(SCc2ccccc2)n1Cc1ccco1 , thanks.
0 (no)

Cool, now c1ccc(CSc2nnc(-c3ccco3)c(-c3ccco3)n2)cc1
1 (yes)

And COc1ccc(C2CC(=O)C3=C(C2)Nc2ccccc2NC3c2cccc(Cl)c2)cc1 (stereo unspecified) ?
0 (no)

// query: CCN(c1cccc(C)c1)c1c(-c2ccc(C)c(C)c2)c(=O)c1=O
0 (no)
